// reported GI50 per item
system: SK-MEL-28 melanoma; assay: NCI tumour cell line growth inhibition, 48 h
READOUT_LABEL: GI50

>>> result("COc1ccc(-c2[nH]c3ccc(OC)cc3c2/C=C(\\C#N)S(=O)(=O)c2ccccc2)cc1")
"0.765 µM"
>>> result("CC(C)c1ccc(-c2cc(-c3cn[nH]c3-c3ccccn3)ccn2)cc1")
"> 25 µM"
>>> result("C=C1C(=O)O[C@H]2[C@H]1CC/C(COC(=O)NCCCCNC(=O)OC/C1=C/CC[C@@]3(C)O[C@H]3[C@H]3OC(=O)C(=C)[C@@H]3CC1)=C\\CC[C@@]1(C)O[C@@H]21")
"0.529 µM"
>>> result("CN1CCN(CCCNc2nc3ccc(Oc4ccc(NC(=O)Nc5cc(C(F)(F)F)ccc5F)cc4)cc3[nH]2)CC1")
"4.24 µM"
>>> result("CCCC(CCC)NCC(O)c1cc(-c2ccc(C(F)(F)F)cc2)nc(C(F)(F)F)c1 (stereo unspecified)")
"1.92 µM"
>>> result("Nc1ccccc1C#C/C=C\\C#Cc1ccccc1N")
"28.7 µM"
>>> result("COc1c(C(=O)/C=C/c2ccccc2)c(O)cc2occc12")
"7.03 µM"
>>> result("CC12OC(C(=O)C13CC3)C1C(=O)c3ccc4c(ccc5ccccc54)c3C(=O)C12 (stereo unspecified)")
"66.3 µM"
>>> result("CC/C=C\\C[C@H](O)C/C=C1/C(=O)C=C[C@@H]1C/C=C\\CCCC(=O)OC")
"1.81 µM"
>>> result("COc1cc2c(cc1OCCCCC(=O)Nc1cc3c4ccccc4ccc3c3ccccc13)N=C[C@@H]1CCCN1C2=O")
"3.41 µM"
>>> result("COc1ccc(/C=C/c2c(C(=O)/C=C/c3ccccc3)c(C)nc3ccccc23)cc1")
"1.88 µM"

###

// reported TGI per item
test system: HOP-92 NSCLC; test: NCI tumour cell line growth inhibition, 48 h
READOUT_LABEL: TGI

>>> result("O=C1c2ccsc2C(=O)c2sc(CO)cc21")
"0.994 µM"
>>> result("CCOC(=O)N[C@@H]1C(CC(=O)OC)O[C@H]2OC(C)(C)O[C@H]21 (stereo partly drawn)")
"> 100 µM"
>>> result("C1=Cc2cc3c(c4nccc(c24)N1)OCO3")
"> 100 µM"
>>> result("NNC(=O)c1c(SCc2ccccc2)nc2c3ccccc3ccn12")
"68.5 µM"
>>> result("Nc1nc(-c2ccccc2)cc(-c2ccc(OCc3ccccc3)cc2O)n1")
"> 100 µM"
>>> result("O=C(c1cccc2ccccc12)N1CCC(C2CCN(C(=O)c3cccc4ccccc34)CC2)CC1")
"> 100 µM"
>>> result("Nc1nc(-[n+]2ccc(-c3ccncc3)cc2)nc(Cl)c1Cl")
"48 µM"
>>> result("C[N+]1(C)CCc2cc(O)c(O)cc2C1Cc1ccc(O)c(O)c1 (stereo not drawn)")
"63.7 µM"
>>> result("COc1c2c(cc3c1OCO3)[C@]13C=C[C@H](OC)C[C@H]1N(C2)CC3O (stereo partly drawn)")
"> 100 µM"
>>> result("COc1c(C(=O)/C=C/c2ccccc2)c(O)cc2occc12")
"7.09 µM"
>>> result("CCNCCNc1cc(-c2ccc(C(F)(F)F)cc2)c(C#N)c2nc3ccccc3n12")
"2.98 µM"
>>> result("C=C(C)[C@@H]1CC[C@]2(CO)CC[C@]3(C)[C@H](CC[C@@H]4[C@@]5(C)C=C(C#N)C(=O)C(C)(C)[C@@H]5CC[C@]43C)[C@@H]12")
"5.15 µM"
>>> result("COc1cc(/C=C/c2ccc(OC)c(O)c2)cc(OC)c1")
"29.4 µM"
>>> result("CC1(C)C(=O)/C(=C\\c2cccnc2)C[C@]2(C)[C@H]3CC[C@@H]4[C@H]5[C@H](C(=O)/C=C/c6cccnc6)CC[C@]5(C(=O)O)CC[C@@]4(C)[C@]3(C)CC[C@@H]12")
"7.64 µM"
>>> result("Cc1nnc(NS(=O)(=O)c2ccc(N=Nc3cc(N=Nc4ccc(S(=O)(=O)Nc5nnc(C)s5)cc4)c4c(NC(=O)C(Cl)Cl)cccc4c3OC(=O)C(Cl)Cl)cc2)s1 (tested in a mixture with another compound)")
"> 100 µM"
>>> result("COc1ccc(S(=O)(=O)c2ccccc2[N+](=O)[O-])cc1")
"> 100 µM"
>>> result("CC(=O)O[C@H]1C(=O)[C@@]2(C)[C@H]([C@H](OC(=O)c3ccoc3)[C@]3(O)C[C@H](OC(=O)[C@H](O)[C@@H](NC(=O)c4ccccc4)c4ccccc4)C(C)=C1C3(C)C)[C@]1(OC(C)=O)CO[C@@H]1C[C@@H]2O")
"> 12.5 µM"
>>> result("NNC(=S)N/N=C(/C(=O)Nc1ccc(Cl)c(Cl)c1)C(C1OC(=O)c2ccccc21)[N+](=O)[O-] (stereo not drawn)")
"> 100 µM"
